experimental-target: AP2-associated protein kinase 1 (Homo sapiens); further: in the data inactive means no Kd found up to 30 µM
Sequence (Q2M2I8 whole entry): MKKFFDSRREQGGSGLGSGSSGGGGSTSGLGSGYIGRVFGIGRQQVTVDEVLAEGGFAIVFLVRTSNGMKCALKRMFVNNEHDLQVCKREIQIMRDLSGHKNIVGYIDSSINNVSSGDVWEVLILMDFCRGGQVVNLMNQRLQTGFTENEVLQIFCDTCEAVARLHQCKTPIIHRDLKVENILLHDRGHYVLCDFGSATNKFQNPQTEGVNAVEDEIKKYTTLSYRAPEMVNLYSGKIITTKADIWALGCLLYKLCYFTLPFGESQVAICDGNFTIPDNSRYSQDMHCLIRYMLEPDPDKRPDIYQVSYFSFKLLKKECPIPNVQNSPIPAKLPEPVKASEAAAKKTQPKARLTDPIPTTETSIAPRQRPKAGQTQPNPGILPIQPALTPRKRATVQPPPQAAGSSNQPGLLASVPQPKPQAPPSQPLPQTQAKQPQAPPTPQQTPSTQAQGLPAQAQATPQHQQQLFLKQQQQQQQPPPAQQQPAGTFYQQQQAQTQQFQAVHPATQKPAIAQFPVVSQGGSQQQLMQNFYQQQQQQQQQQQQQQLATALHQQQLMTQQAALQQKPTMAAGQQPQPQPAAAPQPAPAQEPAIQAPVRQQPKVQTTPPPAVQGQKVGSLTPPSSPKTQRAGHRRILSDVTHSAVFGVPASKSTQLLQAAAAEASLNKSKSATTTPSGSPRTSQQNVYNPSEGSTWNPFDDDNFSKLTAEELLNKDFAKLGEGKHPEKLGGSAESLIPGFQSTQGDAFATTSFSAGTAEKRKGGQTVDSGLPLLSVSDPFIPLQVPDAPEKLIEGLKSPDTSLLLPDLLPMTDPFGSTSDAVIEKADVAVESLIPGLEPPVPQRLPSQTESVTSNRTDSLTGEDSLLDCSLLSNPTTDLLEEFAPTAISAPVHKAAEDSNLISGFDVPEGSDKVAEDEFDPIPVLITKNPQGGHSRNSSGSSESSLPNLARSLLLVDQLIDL
Calls of active or inactive are those of the source.
Tick one outcome: active, inactive

Exercise: Hi, do you know how COc1cc2ncnc(Nc3ccc(F)c(Cl)c3)c2cc1NC(=O)/C=C/CN1CCCCC1 [DACOMITINIB ANHYDROUS] came out in this test?
Solution: inactive

Exercise: Tell me the recorded outcome of this test for Cc1c(NC(=O)OC[C@@H]2COCCN2)cn2ncnc(Nc3ccc4c(cnn4Cc4cccc(F)c4)c3)c12 .
Solution: inactive

Exercise: Record lookup: outcome of this test for N#CCNC(=O)c1ccc(-c2ccnc(Nc3ccc(N4CCOCC4)cc3)n2)cc1 ?
Solution: active

Exercise: What did this assay record as the result for Cc1cc(C(=O)Nc2cc(Oc3ccc4nc(NC(=O)C5CC5)cn4n3)ccc2C)n(C)n1 ?
Solution: active

Exercise: Returns: the outcome recorded for CC(C)(O)CC(=O)NCCn1ccc2ncnc(Nc3ccc(Oc4cccc(C(F)(F)F)c4)c(Cl)c3)c21 in this assay.
Solution: inactive

Exercise: Could you check what this test reported for C=CC(=O)Nc1cc(Nc2nccc(-c3cn(C)c4ccccc34)n2)c(OC)cc1N(C)CCN(C)C ?
Solution: inactive

Exercise: Just curious, what result did CC(C)CC(=O)Nc1[nH]nc2c1CN(C(=O)C1CCN(C)CC1)C2(C)C get here?
Solution: inactive

Exercise: Given COc1ccc(-c2ccc3ncc4c(c3c2)n(-c2ccc(N3CCNCC3)c(C(F)(F)F)c2)c(=O)n4C)cn1 [BGT-226 FREE BASE] , state the outcome it received in this test.
Solution: inactive

----------
experimental-target: MAP kinase-activated protein kinase 2 (Homo sapiens); further: in the data inactive means no Kd found up to 30 µM
Sequence (P49137 whole entry): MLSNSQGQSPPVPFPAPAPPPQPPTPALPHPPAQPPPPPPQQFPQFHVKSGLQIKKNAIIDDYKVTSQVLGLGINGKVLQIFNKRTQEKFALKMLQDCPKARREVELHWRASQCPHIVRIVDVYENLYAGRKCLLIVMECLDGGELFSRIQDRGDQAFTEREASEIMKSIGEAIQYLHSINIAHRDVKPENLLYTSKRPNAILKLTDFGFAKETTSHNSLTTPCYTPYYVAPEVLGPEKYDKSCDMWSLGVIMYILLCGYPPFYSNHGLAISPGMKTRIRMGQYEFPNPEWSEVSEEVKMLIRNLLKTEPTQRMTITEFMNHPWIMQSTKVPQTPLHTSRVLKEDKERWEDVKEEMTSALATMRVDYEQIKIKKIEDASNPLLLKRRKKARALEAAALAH
The source made the active and inactive calls.
Answer with one of the outcomes given here: active, inactive

Exercise: For CCc1nc(C(N)=O)c(Nc2ccc(N3CCC(N4CCN(C)CC4)CC3)c(OC)c2)nc1NC1CCOCC1 , which call appears in the assay record?
Solution: inactive

Exercise: Lab log entry: O=C(O)c1ccc2c(c1)nc(Nc1cccc(Cl)c1)c1ccncc12 — outcome as called in the assay?
Solution: active

Exercise: What did this assay record as the result for Cn1c(=O)n(-c2ccc(C(C)(C)C#N)cc2)c2c3cc(-c4cnc5ccccc5c4)ccc3ncc21 ?
Solution: inactive

Exercise: Tell me the assay call for CNC(=O)c1cccc(-c2ccc3c(N4CCOC[C@@H]4C)nc(N4CCOC[C@@H]4C)nc3n2)c1 please.
Solution: inactive

----------
Calls of active or inactive are those of the source.
I'd be grateful if you could share measured Kd for these entries.

Exercise: Entry CCc1cc2c(cc1N1CCC(N3CCOCC3)CC1)C(C)(C)c1[nH]c3cc(C#N)ccc3c1C2=O , system 5'-AMP-activated protein kinase catalytic subunit alpha-1 (Homo sapiens, UniProt Q13131): what Kd was measured?; further: in the data inactive means no Kd found up to 30 µM
Solution: > 30 µM (inactive)

Exercise: What Kd appears in the records for this compound with 5'-AMP-activated protein kinase catalytic subunit alpha-1 (Homo sapiens, UniProt Q13131)? COc1ccc2c(OCc3nnc4ccc(-c5ccccc5)nn34)ccnc2c1
Sequence (Q13131 whole entry): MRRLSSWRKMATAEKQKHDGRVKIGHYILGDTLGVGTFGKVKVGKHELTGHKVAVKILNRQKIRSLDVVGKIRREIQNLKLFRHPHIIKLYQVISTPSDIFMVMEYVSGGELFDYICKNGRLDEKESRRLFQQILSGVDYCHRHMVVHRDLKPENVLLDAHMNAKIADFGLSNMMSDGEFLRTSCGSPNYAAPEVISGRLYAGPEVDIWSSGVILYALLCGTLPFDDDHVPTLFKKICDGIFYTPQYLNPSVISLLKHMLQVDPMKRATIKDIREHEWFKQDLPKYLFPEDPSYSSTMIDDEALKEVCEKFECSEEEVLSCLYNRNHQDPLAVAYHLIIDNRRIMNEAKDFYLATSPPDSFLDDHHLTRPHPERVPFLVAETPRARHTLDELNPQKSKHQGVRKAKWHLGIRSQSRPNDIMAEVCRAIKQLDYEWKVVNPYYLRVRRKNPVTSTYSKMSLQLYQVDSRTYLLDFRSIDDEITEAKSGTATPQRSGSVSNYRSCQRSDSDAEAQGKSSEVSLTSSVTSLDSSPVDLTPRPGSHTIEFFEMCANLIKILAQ
Solution: > 30 µM (inactive)

Exercise: Give the reported Kd for COc1cc2nccc(Oc3ccc(NC(=O)C4(C(=O)Nc5ccc(F)cc5)CC4)cc3)c2cc1OC [CABOZANTINIB] (system: 5'-AMP-activated protein kinase catalytic subunit alpha-1 (Homo sapiens, UniProt Q13131)). Further: in the data inactive means no Kd found up to 30 µM.
Solution: > 30 µM (inactive)

Exercise: // lookup Kd | system=5'-AMP-activated protein kinase catalytic subunit alpha-1 (Homo sapiens, UniProt Q13131) | key= COc1cc2ncnc(Nc3ccc(O)cc3)c2cc1OC; further: in the data inactive means no Kd found up to 30 µM
Solution: > 30 µM (inactive)

Exercise: # returns recorded Kd (system: 5'-AMP-activated protein kinase catalytic subunit alpha-1 (Homo sapiens, UniProt Q13131)) for COc1cc2ncnc(Nc3ccc(F)c(Cl)c3)c2cc1NC(=O)/C=C/CN1CCCCC1 [DACOMITINIB ANHYDROUS]; further: in the data inactive means no Kd found up to 30 µM
Solution: > 30 µM (inactive)

Exercise: Can you look up Kd on 5'-AMP-activated protein kinase catalytic subunit alpha-1 (Homo sapiens, UniProt Q13131) for CC[C@@](C)(Nc1ccnc(-c2c[nH]c3ncccc23)n1)C(=O)NCC(F)(F)F ?
Solution: > 30 µM (inactive)

Exercise: So what Kd did c1cc(OCCN2CCCCC2)cc(-c2n[nH]c3ccc(-c4nc[nH]n4)cc23)c1 get with 5'-AMP-activated protein kinase catalytic subunit alpha-1 (Homo sapiens, UniProt Q13131)?
Solution: > 30 µM (inactive)

Exercise: Form field: Kd recorded for O=C(NC[C@H](O)CO)c1ccncc1Nc1ccc(I)cc1F with 5'-AMP-activated protein kinase catalytic subunit alpha-1 (Homo sapiens, UniProt Q13131) (enter value)
Solution: > 30 µM (inactive)

Exercise: I'm curious: which Kd was measured for C=CC(=O)Nc1cc(Nc2nccc(-c3cn(C)c4ccccc34)n2)c(OC)cc1N(C)CCN(C)C tested on 5'-AMP-activated protein kinase catalytic subunit alpha-1 (Homo sapiens, UniProt Q13131)?; further: in the data inactive means no Kd found up to 30 µM
Solution: > 30 µM (inactive)

Exercise: Form: Entry = O=C(NOC[C@H](O)CO)c1ccc(F)c(F)c1Nc1ccc(I)cc1F | System = 5'-AMP-activated protein kinase catalytic subunit alpha-1 (Homo sapiens, UniProt Q13131) | Kd = ____; further: in the data inactive means no Kd found up to 30 µM
Solution: > 30 µM (inactive)

Exercise: What Kd appears in the records for this compound with 5'-AMP-activated protein kinase catalytic subunit alpha-1 (Homo sapiens, UniProt Q13131)? Cc1c(Cn2c(C)nc3c(C(=O)O)cc(N4CCOCC4)cc32)cccc1C(F)(F)F
Solution: > 30 µM (inactive)

Exercise: Please provide the recorded Kd for FC(F)(F)c1ccc(CNc2ccc(Cc3c[nH]c4ncc(Cl)cc34)cn2)cn1 , tested on 5'-AMP-activated protein kinase catalytic subunit alpha-1 (Homo sapiens, UniProt Q13131). Further: in the data inactive means no Kd found up to 30 µM.
Solution: > 30 µM (inactive)

Exercise: Provide the documented Kd with 5'-AMP-activated protein kinase catalytic subunit alpha-1 (Homo sapiens, UniProt Q13131) as the system for C#Cc1cccc(Nc2ncnc3cc4c(cc23)OCCOCCOCCO4)c1
Solution: > 30 µM (inactive)

Exercise: GET /values?readout=Kd&system=5'-AMP-activated protein kinase catalytic subunit alpha-1 (Homo sapiens, UniProt Q13131)&item= COc1cc(Nc2ncc(F)c(Nc3ccc4c(n3)N(COP(=O)(O)O)C(=O)C(C)(C)O4)n2)cc(OC)c1OC; further: in the data inactive means no Kd found up to 30 µM
Solution: > 30 µM (inactive)

Exercise: Param readout = Kd; param system = 5'-AMP-activated protein kinase catalytic subunit alpha-1 (Homo sapiens, UniProt Q13131); param query = Cn1c(=O)c(F)c(Nc2ccc(I)cc2F)c2c(=O)n(C[C@@H](O)CO)cnc21 ; response: value; further: in the data inactive means no Kd found up to 30 µM
Solution: > 30 µM (inactive)

Exercise: I'm curious: which Kd was measured for O=S(=O)(c1cccc2c(O)nccc12)N1CCCNCC1 [HYDROXYFASUDIL] tested on 5'-AMP-activated protein kinase catalytic subunit alpha-1 (Homo sapiens, UniProt Q13131)?; further: in the data inactive means no Kd found up to 30 µM
Solution: > 30 µM (inactive)

Exercise: 5'-AMP-activated protein kinase catalytic subunit alpha-1 (Homo sapiens, UniProt Q13131) / Kd / N#CCNC(=O)c1ccc(-c2ccnc(Nc3ccc(N4CCOCC4)cc3)n2)cc1 : value?
Solution: > 30 µM (inactive)

----------
Activity calls are given as the source filed them.
Field: Kd. Provide a value for each of the compounds that follow.

Exercise: Form field - read-out: Kd; system: Elongation factor Tu, mitochondrial (Homo sapiens); submitted item: O=S(=O)(c1cccc2c(O)nccc12)N1CCCNCC1 [HYDROXYFASUDIL]; further: in the data inactive means no Kd found up to 30 µM
Solution: > 30 µM (inactive)

Exercise: Please provide the recorded Kd for N#CCNC(=O)c1ccc(-c2ccnc(Nc3ccc(N4CCOCC4)cc3)n2)cc1 , tested on Elongation factor Tu, mitochondrial (Homo sapiens). Further: in the data inactive means no Kd found up to 30 µM.
Solution: > 30 µM (inactive)

Exercise: Could you share what Kd was measured for FC(F)(F)c1ccc(CNc2ccc(Cc3c[nH]c4ncc(Cl)cc34)cn2)cn1 , tested on Elongation factor Tu, mitochondrial (Homo sapiens)?; further: in the data inactive means no Kd found up to 30 µM
Solution: > 30 µM (inactive)

Exercise: Param readout= Kd; system= Elongation factor Tu, mitochondrial (Homo sapiens); entry= C[C@]1(O)C[C@@H](c2nc(-c3ccc4ccc(-c5ccccc5)nc4c3)c3c(N)nccn32)C1 ; returns value. Further: in the data inactive means no Kd found up to 30 µM.
Solution: > 30 µM (inactive)

Exercise: Give Elongation factor Tu, mitochondrial (Homo sapiens) Kd for NC[C@@](O)(c1ccc(Cl)cc1)c1ccc(-c2cn[nH]c2)cc1
Solution: > 30 µM (inactive)

Exercise: Given the entry COc1cc2ncnc3c2cc1OCCCCCN(C)Cc1ccc(Br)cc1N3 , what Kd was observed with Elongation factor Tu, mitochondrial (Homo sapiens)?
Solution: > 30 µM (inactive)

Exercise: Please provide the recorded Kd for CCOc1ccn(-c2ccc(F)cc2)c(=O)c1C(=O)Nc1ccc(Oc2ccnc(N)c2Cl)c(F)c1 , tested on Elongation factor Tu, mitochondrial (Homo sapiens). Further: in the data inactive means no Kd found up to 30 µM.
Solution: > 30 µM (inactive)

Exercise: Under Elongation factor Tu, mitochondrial (Homo sapiens): Kd value of COc1ccc(-c2ccc3ncc4c(c3c2)n(-c2ccc(N3CCNCC3)c(C(F)(F)F)c2)c(=O)n4C)cn1 [BGT-226 FREE BASE] ?
Solution: > 30 µM (inactive)
